TARGET_DESC: HLA-A*24:02 (Homo sapiens, UniProt P04439, D101N/D140Y/D185E/E176V/E190D/F33S/G103R/G107R/I119L/I121M/I306V/K335N/L105A/L180Q/L300P/N151K/N90K/Q86E/Q94H/R106L/R138H/R89G/T104I/T345S/V100E/W191G/Y123F)
EXPERIMENT: In vitro binding of neoantigens to class I MHC (UV peptide exchange, HLA class I ELISA)
TEST_PARAMETERS: 100% = same binding affinity as positive control peptide
Reported Exchange rate with Pos peptide, HLA-A*24:02 values follow for various sequences
Entry rule: numbers only, all in %.

Data point: DDRNTFDIVWWCPMSRLRLALTVPPSTTTTCVTVPAWAA [P46] (listed as Homo sapiens) [Neoantigen P46, TP53 (R213D)] ; Exchange rate with Pos peptide, HLA-A*24:02 = −0.4

Data point: MMAEHSVHVPKILSGK (MMAEIISVHVPKILSGK; listed as Homo sapiens) [Neoantigen P58, AR (Q903H)] ; Exchange rate with Pos peptide, HLA-A*24:02 = 0.2

* * *

TARGET_DESC: HLA-A*24:02 (Homo sapiens, UniProt P04439, D101N/D140Y/D185E/E176V/E190D/F33S/G103R/G107R/I119L/I121M/I306V/K335N/L105A/L180Q/L300P/N151K/N90K/Q86E/Q94H/R106L/R138H/R89G/T104I/T345S/V100E/W191G/Y123F)
EXPERIMENT: In vitro binding of neoantigens to class I MHC (UV peptide exchange, HLA class I ELISA)
TEST_PARAMETERS: 100% = same binding affinity as positive control peptide
MEASURED_METRIC: Exchange rate with Pos peptide, HLA-A*24:02 (%)
Entry rule: numbers only, all in %.

Worked examples follow.
CYLRRQKRLKCEKQPGA (listed as Homo sapiens) [Neoantigen P60, FOXA1.p.F266L] | 0.9
PKSEVRAKCKFSILNAK (listed as Homo sapiens) [Neoantigen P56, SPOP (F102C)] | 0.5
VQPIARELYQFTFDLLI (listed as Homo sapiens) [Neoantigen P48, AR.p.H875Y] | 0.1

Next:
Data point: GVPGDSTRRAVRRMNTF [P17] (listed as Homo sapiens) [Neoantigen P17, MSMB-NOCA4] ; Exchange rate with Pos peptide, HLA-A*24:02 = 0.1

* * *

TARGET_DESC: HLA-A*03:01 (Homo sapiens)
EXPERIMENT: In vitro binding of neoantigens to class I MHC (UV peptide exchange, HLA class I ELISA)
TEST_PARAMETERS: 100% = same binding affinity as positive control peptide
Reported Exchange rate with Pos peptide, HLA-A*03:01 values follow for various sequences
Entry rule: numbers only, all in %.

MFENGCYLGRQKRFKCE (listed as Homo sapiens) [Neoantigen P61, FOXAl.p.R261G] | 2.1

Data point: DDRNTFDIVWWCPMSRLRLALTVPPSTTTTCVTVPAWAA [P46] (listed as Homo sapiens) [Neoantigen P46, TP53 (R213D)] ; Exchange rate with Pos peptide, HLA-A*03:01 = 10.3

Data point: SLYHREKQLIAMDSAI (listed as Homo sapiens) [Neoantigen P22, 5LC45A3-ELK4] ; Exchange rate with Pos peptide, HLA-A*03:01 = 4.8

Data point: MMAEHSVHVPKILSGK (MMAEIISVHVPKILSGK; listed as Homo sapiens) [Neoantigen P58, AR (Q903H)] ; Exchange rate with Pos peptide, HLA-A*03:01 = 32.5

Data point: GYLRMQGLMAQRLLLR (listed as Homo sapiens) [Neoantigen P97, FOXRED2-TXN2] ; Exchange rate with Pos peptide, HLA-A*03:01 = 39

Data point: PKSEVRAKCKFSILNAK (listed as Homo sapiens) [Neoantigen P56, SPOP (F102C)] ; Exchange rate with Pos peptide, HLA-A*03:01 = 6.8

Data credit: patent US12582683B2
